Listed molecules paired with reported m-value
- assay-remarks: Isothermal equilibrium denaturation in guanidine HCl monitored by CD
- Assay type: physicochemical
- test-context: GuHCl, 298K, CD signal at 227 nm
metric-name: m-value (kJ/mol M)

[[record]]
molecule = "SYM5: FGF-1 core mutant Leu44→Phe/Leu73→Val/Val109→Leu/Leu111→Ile/Cys117→Val (protein, UniProt P05230 16-155, looked up, variant L44F L73V V109L L111I C117V) Fibroblast growth factor 1: FNLPPGNYKKPKLLYCSNGGHFLRILPDGTVDGTRDRSDQHIQFQLSAESVGEVYIKSTETGQYLAMDTDGLVYGSQTPNEECLFLERLEENHYNTYISKKHAEKNWFLGIKKNGSVKRGPRTHYGQKAILFLPLPVSSD"
metric_name = "m-value"
value = 17.5

[[record]]
molecule = "SYM6/ΔΔ: SYM6 FGF-1 mutant plus both Δ104-106 and Δ120-122 deletion mutations, SEQ ID NO: 1 (protein, Human FGF-1 mutant SYM6DD) FNLPPGNYKKPKLLYCSNGGHFLRILPDGTVDGTRDRSDQHIQFQLSAESVGEVYIKSTETGQYLAIDTDGLVYGSQTPNEECLFLERLEENHYNTYISKKHGWFLGIKKNGSVKGTHYGQKAILFLPLPVSSD"
metric_name = "m-value"
value = 17.7

[[record]]
molecule = "SYM6/Δ120-122: SYM6 FGF-1 mutant plus Arg119→Gly/ΔGly120/ΔPro121/ΔArg122 (protein, UniProt P05230 16-155, looked up, variant L44F M67I L73V V109L L111I C117V R119G del120-122) Fibroblast growth factor 1: FNLPPGNYKKPKLLYCSNGGHFLRILPDGTVDGTRDRSDQHIQFQLSAESVGEVYIKSTETGQYLAIDTDGLVYGSQTPNEECLFLERLEENHYNTYISKKHAEKNWFLGIKKNGSVKGTHYGQKAILFLPLPVSSD"
metric_name = "m-value"
value = 20.0


// provenance: patent US7790682B1
